- Test system: Staphylococcus aureus
- PROTOCOL SUMMARY: Antibacterial activity against Staphylococcus aureus assessed as bacterial growth inhibition
- Assay type: functional
Recorded measurements of MIC, one per entry
Quick note: give the figure in µg/mL, leave out the unit.

Past entries and their recorded results:
# MOLECULE, VALUE UNITS, MIC
data = [
    ("COC(=O)[C@@H]1CCCCc2cc3ccccc3c(c2OC)-c2c(OC)c(cc3ccccc23)CC(NC(C)=O)C(=O)N[C@H](CCCCN)C(=O)N1 (stereo partly drawn)", "µg/mL", 15),
    ("CC(C)(C)c1cc(NC(=O)c2cc(OCCN)cc(C(=O)Nc3cc(C(C)(C)C)cc(NC(=O)[C@H](N)CCCNC(=N)N)c3SCCN)c2)c(SCCN)c(NC(=O)[C@H](N)CCCNC(=N)N)c1", "µg/mL", 12.5),
    ("CC(C)CCOC(=O)[C@H](CC(C)C)NC(=O)[C@@H](CCCNC(=N)N)NC(=O)[C@@H](CCCCN)NC(=O)COc1ccc2ccccc2c1-c1c(OCCC(C)C)ccc2ccccc12", "µg/mL", 2),
    ("COc1cc(OC)c(C(=O)Nc2cc(C(F)(F)F)cc(NC(=O)CCCCNC(=N)N)c2SCCN)cc1C(=O)Nc1cc(C(F)(F)F)cc(NC(=O)CCCCNC(=N)N)c1SCCN", "µg/mL", 0.2),
    ("CC(C)NC(=O)N[C@H](CNC(=O)N[C@@H](CCCCN)CNC(=N)N[C@H](CNC(=O)N[C@H](CNC(=O)N[C@@H](CCCCN)CNC(=O)N[C@H](CNC(=O)N[C@@H](CCCCN)CNC(N)=O)Cc1c[nH]c2ccccc12)C(C)C)Cc1c[nH]c2ccccc12)C(C)C", "µg/mL", 32),
    ("COC(=O)[C@H](CCCNC(=N)N)NC(=O)[C@H](Cc1c(C(C)(C)C)[nH]c2c(C(C)(C)C)cc(C(C)(C)C)cc12)NC(=O)[C@@H](N)CCCNC(=N)N", "µg/mL", 5),
]

Entry under review: "CC(C)(C)c1cc(C(C)(C)C)c2[nH]c(C(C)(C)C)c(C[C@H](N)C(=O)N[C@@H](CCCNC(=N)N)C(=O)NCc3ccccc3)c2c1" . Reported MIC? 2.5

What about this molecule? "CC(C)(C)c1cc(C(C)(C)C)c2[nH]c(C(C)(C)C)c(C[C@H](NC(=O)[C@@H](N)CCCNC(=N)N)C(=O)N[C@@H](CCCNC(=N)N)C(=O)NCCc3ccccc3)c2c1" 2.5

* * *

- PROTOCOL SUMMARY: Cytotoxicity against human HepG2 cells assessed as reduction in cell viability
- Format: toxicity, cell-based
VALUE TYPE: EC50

Entry under review: "COc1cc(OC)c(C(=O)Nc2cc(C(F)(F)F)cc(NC(=O)CCCCNC(=N)N)c2SCCN)cc1C(=O)Nc1cc(C(F)(F)F)cc(NC(=O)CCCCNC(=N)N)c1SCCN" . Reported EC50? > 2000 mg/L

* * *

- PROTOCOL SUMMARY: Hemolytic activity in human RBC incubated for 10 mins by absorbance based analysis
- Format: toxicity, cell-based, Erythrocyte
- ASSAY SETUP: red blood cells (erythrocytes)
VALUE TYPE: HC50 at 10 min
The reply must contain the numeric value and, after it, the unit.

Entry under review: "CCCCCCCCCCCCCCCC(=O)N[C@@H](CCCCN)C(=O)N[C@@H](Cc1ccccc1)CN(CC(N)=O)C(=O)CCCN" . Reported HC50 at 10 min? 150 µg/mL
